Listing: IL-2 secretion, pg/ml, at 3.3 ug/ml, N = 1 of selected binders
- Assay System: T1, CTLA-4 on human T lymphocytes (PBMC, CD3+ T cells) (human, UniProt P16410 36-223)
- T1 sequence (looked up): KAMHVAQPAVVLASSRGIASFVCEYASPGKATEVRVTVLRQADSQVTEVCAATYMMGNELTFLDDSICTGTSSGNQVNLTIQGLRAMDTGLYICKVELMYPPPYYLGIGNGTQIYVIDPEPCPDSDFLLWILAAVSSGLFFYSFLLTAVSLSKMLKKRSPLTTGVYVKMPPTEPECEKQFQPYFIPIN
- Experiment: cell-based or functional assay
API: value field is a number in pg/mL; no unit string.

Binder	Recorded Result
97A8D1 fully human CTLA-4 antibody (human IgG1, kappa) (antibody, V domains shown, also called mAb49; mAb049) VH: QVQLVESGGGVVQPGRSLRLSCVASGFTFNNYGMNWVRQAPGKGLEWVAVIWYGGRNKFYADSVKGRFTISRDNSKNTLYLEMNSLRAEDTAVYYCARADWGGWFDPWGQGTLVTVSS VL: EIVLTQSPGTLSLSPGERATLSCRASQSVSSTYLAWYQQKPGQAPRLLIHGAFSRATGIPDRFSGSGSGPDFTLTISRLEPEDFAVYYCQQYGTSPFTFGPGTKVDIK	4660

Prompt line: May I ask what IL-2 secretion, pg/ml, at 3.3 ug/ml, N = 1 has been recorded for 31C12F3 fully human CTLA-4 antibody (human IgG1, kappa) (antibody, V domains shown, also called mAb010) VH: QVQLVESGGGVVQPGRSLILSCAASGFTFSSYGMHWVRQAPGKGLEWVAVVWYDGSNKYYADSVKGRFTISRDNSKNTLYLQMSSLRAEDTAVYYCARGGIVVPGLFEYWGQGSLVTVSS VL: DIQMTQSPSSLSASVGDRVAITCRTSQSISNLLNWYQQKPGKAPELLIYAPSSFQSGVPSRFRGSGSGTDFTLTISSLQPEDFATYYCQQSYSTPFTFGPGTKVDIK ?
Response line: 4420

Prompt line: Find the recorded IL-2 secretion, pg/ml, at 3.3 ug/ml, N = 1 belonging to 40C4C6 fully human CTLA-4 antibody (human IgG1, kappa) (antibody, V domains shown, also called mAb09; mAb009) VH: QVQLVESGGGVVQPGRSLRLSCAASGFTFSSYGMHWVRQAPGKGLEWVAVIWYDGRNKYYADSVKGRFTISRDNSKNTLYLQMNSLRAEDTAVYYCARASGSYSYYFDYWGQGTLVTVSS VL: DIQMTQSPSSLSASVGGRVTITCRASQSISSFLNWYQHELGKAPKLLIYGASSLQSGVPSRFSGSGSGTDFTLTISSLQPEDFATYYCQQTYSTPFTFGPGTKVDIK and report it.
Response line: 3770

Prompt line: I am curious: what IL-2 secretion, pg/ml, at 3.3 ug/ml, N = 1 value has been reported for 92C8B6 fully human CTLA-4 antibody (human IgG1, kappa) (antibody, V domains shown, also called mAb42; mAb042) VH: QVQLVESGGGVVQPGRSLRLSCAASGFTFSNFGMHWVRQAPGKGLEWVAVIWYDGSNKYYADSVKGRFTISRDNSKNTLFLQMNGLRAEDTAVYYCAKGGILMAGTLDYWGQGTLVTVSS VL: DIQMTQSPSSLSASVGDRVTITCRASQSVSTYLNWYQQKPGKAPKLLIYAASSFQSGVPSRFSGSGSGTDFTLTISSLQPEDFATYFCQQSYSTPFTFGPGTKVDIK ?
Response line: 4860
